# TARGET_OR_TEST_SYSTEM: hFASN enzyme (full length) (Homo sapiens)
# Construct: 10 μL hFASN enzyme (full length, 300 ng, purified in house); made in house
# Sequence (P49327 whole entry): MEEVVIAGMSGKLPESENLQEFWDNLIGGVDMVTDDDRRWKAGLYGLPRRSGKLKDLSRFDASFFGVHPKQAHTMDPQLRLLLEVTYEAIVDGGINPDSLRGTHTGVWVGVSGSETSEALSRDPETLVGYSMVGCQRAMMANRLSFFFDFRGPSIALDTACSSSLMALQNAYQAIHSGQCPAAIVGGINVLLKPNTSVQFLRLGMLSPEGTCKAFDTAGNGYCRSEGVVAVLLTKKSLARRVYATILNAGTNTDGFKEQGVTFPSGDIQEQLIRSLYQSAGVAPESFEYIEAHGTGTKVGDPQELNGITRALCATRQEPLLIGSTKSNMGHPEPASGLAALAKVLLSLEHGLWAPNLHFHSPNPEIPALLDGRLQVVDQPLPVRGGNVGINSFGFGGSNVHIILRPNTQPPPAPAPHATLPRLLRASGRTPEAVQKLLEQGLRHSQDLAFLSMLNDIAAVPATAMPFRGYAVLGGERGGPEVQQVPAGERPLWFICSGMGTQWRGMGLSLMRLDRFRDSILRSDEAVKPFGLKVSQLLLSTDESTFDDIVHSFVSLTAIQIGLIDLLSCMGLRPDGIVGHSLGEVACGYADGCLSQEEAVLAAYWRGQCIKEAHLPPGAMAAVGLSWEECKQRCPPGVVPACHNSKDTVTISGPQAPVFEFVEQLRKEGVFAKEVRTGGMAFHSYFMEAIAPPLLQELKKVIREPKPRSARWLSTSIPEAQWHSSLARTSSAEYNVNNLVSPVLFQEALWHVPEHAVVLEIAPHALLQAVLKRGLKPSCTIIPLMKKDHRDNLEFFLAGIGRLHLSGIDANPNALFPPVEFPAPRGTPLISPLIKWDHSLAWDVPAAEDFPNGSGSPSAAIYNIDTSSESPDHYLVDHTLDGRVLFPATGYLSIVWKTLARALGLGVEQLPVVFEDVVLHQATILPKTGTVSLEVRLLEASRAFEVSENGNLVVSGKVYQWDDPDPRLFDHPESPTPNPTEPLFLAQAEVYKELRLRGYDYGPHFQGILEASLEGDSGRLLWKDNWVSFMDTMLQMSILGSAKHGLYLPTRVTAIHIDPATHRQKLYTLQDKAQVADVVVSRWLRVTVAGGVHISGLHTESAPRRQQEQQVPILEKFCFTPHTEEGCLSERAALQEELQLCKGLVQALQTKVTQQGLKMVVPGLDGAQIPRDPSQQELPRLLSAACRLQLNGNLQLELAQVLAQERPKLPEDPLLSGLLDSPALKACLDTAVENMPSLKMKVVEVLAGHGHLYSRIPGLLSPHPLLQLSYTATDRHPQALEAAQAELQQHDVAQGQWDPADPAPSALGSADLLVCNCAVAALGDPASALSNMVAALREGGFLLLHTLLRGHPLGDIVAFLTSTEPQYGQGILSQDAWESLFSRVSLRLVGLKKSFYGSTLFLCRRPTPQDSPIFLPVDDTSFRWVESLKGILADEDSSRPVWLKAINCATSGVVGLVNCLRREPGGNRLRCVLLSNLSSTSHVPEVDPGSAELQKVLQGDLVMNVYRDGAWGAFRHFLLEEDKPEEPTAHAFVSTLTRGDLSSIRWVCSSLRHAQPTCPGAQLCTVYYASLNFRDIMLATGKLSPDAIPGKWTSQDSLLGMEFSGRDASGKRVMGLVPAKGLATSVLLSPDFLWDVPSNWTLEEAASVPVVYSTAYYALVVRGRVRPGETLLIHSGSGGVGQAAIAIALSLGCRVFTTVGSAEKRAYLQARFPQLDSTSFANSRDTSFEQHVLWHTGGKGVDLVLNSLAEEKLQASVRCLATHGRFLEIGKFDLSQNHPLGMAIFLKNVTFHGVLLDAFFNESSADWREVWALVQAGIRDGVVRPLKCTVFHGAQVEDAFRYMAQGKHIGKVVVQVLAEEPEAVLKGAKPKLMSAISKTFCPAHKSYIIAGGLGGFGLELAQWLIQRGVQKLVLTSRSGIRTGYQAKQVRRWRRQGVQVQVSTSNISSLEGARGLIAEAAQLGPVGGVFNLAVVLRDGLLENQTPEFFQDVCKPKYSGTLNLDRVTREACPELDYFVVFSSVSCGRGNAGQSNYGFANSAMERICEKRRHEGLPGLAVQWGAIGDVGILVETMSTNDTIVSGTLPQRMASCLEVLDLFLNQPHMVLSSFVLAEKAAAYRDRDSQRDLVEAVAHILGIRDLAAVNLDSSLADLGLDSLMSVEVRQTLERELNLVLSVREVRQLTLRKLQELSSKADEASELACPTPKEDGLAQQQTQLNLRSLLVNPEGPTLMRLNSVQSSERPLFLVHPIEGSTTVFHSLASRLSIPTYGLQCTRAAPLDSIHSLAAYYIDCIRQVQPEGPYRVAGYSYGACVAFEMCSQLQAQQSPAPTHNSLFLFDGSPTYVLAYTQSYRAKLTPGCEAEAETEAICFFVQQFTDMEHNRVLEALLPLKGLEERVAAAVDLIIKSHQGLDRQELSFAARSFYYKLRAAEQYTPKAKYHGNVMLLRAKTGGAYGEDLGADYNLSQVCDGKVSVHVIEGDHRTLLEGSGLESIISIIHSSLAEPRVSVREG
# ASSAY: Fatty Acid Synthase (FASN) inhibition scintillation proximity assay
# Type: biochemical
# RUN_CONDITIONS: read-out: Human FASN pIC50 (converted)
# Protocol: In this assay, inhibition of FASN activity is measured using ^3H-acetyl-CoA and malonyl-CoA as substrates. ^3H-Acetyl CoA is converted to ^3H-palmitate through a series of reactions by the FASN protein, which contains 7 functional domains and carries out 7 enzymatic reactions to ultimately produce ^3H-palmitate. The assay principle is based upon the fact that ^3H-acetyl-CoA is hydrophilic and the end product, ^3H-palmitate is hydrophobic. […]
ENDPOINT_LABEL: IC50 (nM)
Give just the numeric value; nM need not be written.

QUERY: Need IC50 of "O=C(C1CC1)N1CC[C@@H](CN2C(=O)C3(CC3)N=C2c2ccc(-c3ccc4occc4c3)cn2)C1" , thanks.
RESULT: 324

QUERY: # IC50 lookup, item "O=C(C1CC1)N1CC(CN2C(=O)C3(CC3)N=C2c2ccc(-c3cccc(SC4CC4)c3)cc2F)C1"
RESULT: 275

QUERY: For "Cc1cn(C)c2ccc(-c3ccc(C4=NC5(CC5)C(=O)N4CC4CN(C(=O)C5CC5)C4)c(F)c3)cc12" , what is its reported IC50?
RESULT: 166

QUERY: Look at this compound and give its reported IC50. "Cc1sc2ccc(-c3ccc(C4=NC5(CC5)C(=O)N4C[C@@H]4CCN(C(=O)C5CC5)C4)c(F)c3)cc2c1C"
RESULT: 32.4

QUERY: What IC50 value was documented for this compound, "CC(C)C(=O)N1CCC2(CC1)N=C(c1ccc(-c3ccc(-c4cnn(C)c4)cc3)cc1)N(CC1CN(C(=O)C3CC3)C1)C2=O" ?
RESULT: 1910

QUERY: Query: IC50; subject: "Cc1cc(C2=NC3(CC3)C(=O)N2C[C@@H]2CCN(C(=O)C3CC3)C2)ccc1-c1ccc2sccc2c1"
RESULT: 40.7

QUERY: // IC50 lookup, key: "N#Cc1ccc2cc(-c3ccc(C4=NC5(CC5)C(=O)N4CC4CN(C(=O)C5CC5)C4)c(F)c3)ccc2c1"
RESULT: 27.5

QUERY: Could you tell me which IC50 is on file for "CS(=O)(=O)N1CCC2(CC1)N=C(c1ccc(-c3ccc4[nH]ccc4c3)cc1)N(CC1CN(C(=O)C3CC3)C1)C2=O" ?
RESULT: 316

QUERY: Requested read-out: IC50. Entry: "O=C(C1CC1)N1CC(CN2C(=O)C3(CC3)N=C2c2ccc(-c3ccc4ccc(Cl)nc4c3)cc2)C1"
RESULT: 5010

QUERY: Requested read-out: IC50. Entry: "O=C(C1CC1)N1CC(CN2C(=O)C3(CC3)N=C2c2ccc(-c3cnc4c(F)cccc4c3)cc2)C1"
RESULT: 3720

QUERY: # IC50 lookup, item "O=C(C1CC1)N1CC[C@@H](CN2C(=O)C3(CCNCC3)N=C2c2ccc(-c3ccc4occc4c3)cc2)C1"
RESULT: 447

QUERY: Can you share its IC50? I mean this compound: "CN(C)CC(=O)N1CCC2(CC1)N=C(c1ccc(-c3ccc4occc4c3)cc1)N(C[C@@H]1CCN(C(=O)C3CC3)C1)C2=O"
RESULT: 105

QUERY: I'd like to know its IC50. The compound in question is "Cc1cc(-c2ccc(-c3cnn(C4CCC4)c3)cc2)ccc1C1=NC2(CC2)C(=O)N1CC1CN(C(=O)C2(C)CC2)C1"
RESULT: 43.7

QUERY: So what's the measured IC50 for this one? "O=C(C1CC1)N1CC(CN2C(=O)C3(CC3)N=C2c2ccc(-c3ccc4c(cnn4CCO)c3)cc2)C1"
RESULT: 5250

QUERY: Could you tell me which IC50 is on file for "O=C(Nc1cccc(-c2ccc(C3=NC4(CC4)C(=O)N3CC3CN(C(=O)C4CC4)C3)c(F)c2)c1)C1CC1" ?
RESULT: 324

QUERY: GET /values?readout=IC50&item= "COC(=O)N1CC2(C1)N=C(c1ccc(-c3ccc(-c4cnn(C)c4)cc3)cc1)N(C[C@@H]1CCN(C(=O)[C@H]3CCCO3)C1)C2=O"
RESULT: 204

QUERY: Find the recorded IC50 belonging to "O=C(C1CC1)N1CC[C@@H](CN2C(=O)C3(CC3)N=C2c2ccc(-c3ccc4cc[nH]c4c3)c(F)c2)C1" and report it.
RESULT: 34.7

QUERY: Please look up its IC50: "Cc1cc(-c2ccc3cc(C#N)ccc3c2)ccc1C1=NC2(CC2)C(=O)N1CC1CN(C(=O)C2(O)CC2)C1"
RESULT: 18.6

QUERY: Recorded IC50 of "Cn1ncc2ccc(-c3ccc(C4=NC5(CC5)C(=O)N4CC4CCN(C(=O)C5CC5)CC4)cc3)cc21" , please.
RESULT: 1860

QUERY: Returns the measured IC50 for the input compound. Input: "O=C(C1CC1)N1CC(CN2C(=O)C3(CC3)N=C2c2ccc(-c3ccc4sccc4c3)c(F)c2)C1"
RESULT: 178

QUERY: GET /values?readout=IC50&item= "Cn1nccc1-c1ccc(-c2ccc(C3=NC4(CC4)C(=O)N3CC3CN(C(=O)C4(C)CC4)C3)c(F)c2)cc1"
RESULT: 380
